Hey, just so you know, these numbers are from the supplement of paper PMC10567573.

B1: MNAT1 (parent)
chain: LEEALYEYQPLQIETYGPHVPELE

Variants of: B1
Experiment: protein stability index of a GFP-peptide fusion (GPS, HEK-293T) (PSI 1-6); higher = more stable;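 also: lentivirally expressed fusions sorted by FACS into six bins by GFP to DsRed ratio, PSI derived from sequencing read proportions per bin multiplied by bin number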
Conditions: c terminus: a fixed tail appended
Recorded measurements of protein stability index, one per entry
Reply: number alone, nothing else.

Reference set, count: 5
1. L1K | 4.81
2. P18S | 2.6
3. E2I | 2.67
4. L11S | 4.11
5. L11W | 4.27

Inquiry: Sample `P10V` — what was its protein stability index?
Reply text: 2.25

Inquiry: Follow-up item: `Y8T`
Reply text: 5.38

Inquiry: Follow-up item: `G17A`
Reply text: 2.35
